B1: POLD4 (parent)
chain: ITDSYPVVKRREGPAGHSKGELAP

# Variants of: B1
# protocol-notes: protein stability index of a GFP-peptide fusion (GPS, HEK-293T) (PSI 1-6); higher = more stable;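 also: lentivirally expressed fusions sorted by FACS into six bins by GFP to DsRed ratio, PSI derived from sequencing read proportions per bin multiplied by bin number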
# cond: c terminus: a fixed tail appended
experimental-readout: protein stability index
Quick one: just the number, no unit, thanks!

Reported protein stability index for P24Q : what is it?
4.1

Reported protein stability index for R10A : what is it?
4.56

Reported protein stability index for E21C : what is it?
3.14

More entries:
Reported protein stability index for R10P : what is it?
4.68

Reported protein stability index for R11I : what is it?
3.76

Reported protein stability index for R10L : what is it?
3.64

Reported protein stability index for P14L : what is it?
3.24

Reported protein stability index for E12V : what is it?
2.72

Reported protein stability index for P14T : what is it?
3.57

Reported protein stability index for P6S : what is it?
3.53

Reported protein stability index for R10F : what is it?
3.57

Reported protein stability index for V7G : what is it?
4.93

Reported protein stability index for R11W : what is it?
3.46

Reported protein stability index for S18P : what is it?
2.84

Reported protein stability index for S18L : what is it?
2.91

Reported protein stability index for A15Y : what is it?
3.75

Reported protein stability index for P6R : what is it?
2.94

Reported protein stability index for A23L : what is it?
3.2

Reported protein stability index for A23M : what is it?
2.1

// data source = the supplement of paper PMC10567573
